Test: Plasmodium falciparum growth inhibition, primary screen, strain 3D7, DAPI fluorescence, 100 nL (AID 1184);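 further: parasites grown inside human red blood cells in medium with human serum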
Condition Details: P. falciparum 3D7 growth, 3 d, higher = more signal
Hi there, I'd appreciate the recorded z-score for every entry that follows.
Give bare numbers.

Would you please look over these solved cases?
[
  {
    "Compound": "N[C@@H](Cc1ccccc1)Cn1cc(-c2ccccc2)nn1",
    "Reported Measurement": 0.942
  },
  {
    "Compound": "COc1ccc(NN2C(C(O)c3ccc(OC)c(OCc4ccccc4)c3)C=CC3C(=O)N(C4CCCCC4)C(=O)C32)cc1 (configuration not stated)",
    "Reported Measurement": -1.02
  },
  {
    "Compound": "COc1ccc(C(O)C2C=CC3C(=O)N(C)C(=O)C3N2Nc2ccccc2)cc1OCc1ccccc1 (configuration not stated)",
    "Reported Measurement": 0.039
  },
  {
    "Compound": "COc1ccc([Si](C)(C)[C@@H]2[C@@H](CCn3cc([C@H](O)c4ccccc4)nn3)O[C@]3(C(=O)N(Cc4ccc(N5C(=O)c6cccc7cccc5c67)cc4)c4ccccc43)[C@H]2C)cc1",
    "Reported Measurement": -2.8
  },
  {
    "Compound": "[N-]=[N+]=NCc1ccccc1[C@@H]1OC(c2ccc(OCCCO)cc2)=N[C@]1(Cc1ccccc1N=[N+]=[N-])C(=O)NCc1ccccc1",
    "Reported Measurement": -2.29
  },
  {
    "Compound": "O=c1oc(-c2ccccc2)nc2cc(Br)ccc12",
    "Reported Measurement": 1.64
  }
]

Each compound below has a recorded value; state its z-score.
1. COCCOC(=O)N1C(=O)[C@@]2(c3ccccc31)[C@H](C(=O)NC[C@H](O)c1ccccc1)[C@H]1C(=O)O[C@H](c3ccccc3)[C@H](c3ccccc3)N1[C@@H]2c1ccc(OCCO)cc1
2. COC(=O)[C@@]1(Cc2ccc(F)cc2)[C@H]2c3cc(C(=O)N(C)C)n(CCc4ccccn4)c3C[C@H]2CN1C(=O)c1ccccc1
3. O=C/C=C/c1ccc(Cl)cc1

1: -2.02; 2: -1.21; 3: 0.364

Each compound below has a recorded value; state its z-score.
1. COCCOC(=O)N1C(=O)[C@@]2(c3cc(C#CCNC(N)=O)ccc31)[C@H](c1ccccc1OCCO)N1[C@H](c3ccccc3)[C@H](c3ccccc3)OC(=O)[C@H]1[C@@H]2C(N)=O
2. CC(C)C(=C=CC[C@@H](O)c1ccccc1OCCO)C[C@@H](O)c1ccccn1
3. CCCCCCCCCCC(O)C1C=CC2C(=O)N(Cc3ccccc3)C(=O)C2N1n1cnnc1 (configuration not stated)
4. CC(C)N1C(=O)[C@@]2(c3ccc([N+](=O)[O-])cc3)CC(=O)N(CC34CC5CC(CC(C5)C3)C4)[C@@H]2c2ccc(CO)cc21
5. C=CCOC(=O)[C@H]1[C@@H]2C(=O)O[C@@H](c3ccccc3)[C@@H](c3ccccc3)N2[C@@H](c2ccc(OCCOC(=O)[C@@H]3C[C@@H]4C(=O)NCC(=O)N4[C@@H]3c3ccc(O)cc3)cc2)[C@]12C(=O)Nc1ccccc12
6. CN(C)C(=O)[C@@]1(CCC(=O)OC(C)(C)C)N=C(c2ccc(OCCCO)cc2)O[C@H]1c1ccccc1
7. COCCOC(=O)N1C(=O)[C@@]2(c3cc(C#CCNC(N)=O)ccc31)[C@H](c1ccc(O)cc1)N1[C@H](c3ccccc3)[C@H](c3ccccc3)OC(=O)[C@H]1[C@@H]2C(=O)Nc1nc2ccccc2s1

1: -0.585; 2: -1.35; 3: -1.08; 4: 0.115; 5: -1.86; 6: -1.8; 7: 0.0446

Each compound below has a recorded value; state its z-score.
1. CCCCCCc1nc(CCCc2cc3c(c(CCCCCC)n2)[Si](C(C)C)(C(C)C)OC3)cc2c1[Si](C(C)C)(C(C)C)OC2
2. CCOC(=O)C[C@H]1[C@H](OC(=O)c2ccc(C(=O)c3ccccc3)cc2)[C@@H](NC(=O)C2CCCCC2)c2cc(OCCCO)ccc2N1C(=O)c1ccccc1

1: -2.33; 2: 0.863

Each compound below has a recorded value; state its z-score.
1. O=C/C=C/c1ccc2c(c1)OCO2
2. CC(C)OC(=O)CC(=O)CC(O)c1ccc(C#N)cc1 (configuration not stated)

0.775
0.393

Each compound below has a recorded value; state its z-score.
1. O=C(CCN1CCOCC1)c1cccc(O)c1
2. COCC1=C2[C@@H](CCc3ccccc3)OB(O)C[C@@H]2[C@@H]2C(=O)N(Cc3ccccc3)C(=O)[C@@H]2C1
3. C=CCOC(=O)[C@@H]1[C@H]2C(=O)O[C@H](c3ccccc3)[C@H](c3ccccc3)N2[C@H](c2ccc(OCCOC(=O)[C@@H]3C[C@@H]4C(=O)NCC(=O)N4[C@@H]3c3cccc(OCCO)c3)cc2)[C@@]12C(=O)Nc1ccc(I)cc12
4. [N-]=[N+]=Nc1ccccc1C[C@]1(C(=O)NCCN2CCOCC2)N=C(c2ccc(OCCCO)cc2)O[C@H]1c1ccccc1
5. CC(C)(C)N1CC=CC23O[C@@H]4/C=C\CCCOC(=O)C4[C@H]2C(=O)N(CCO)[C@@H]3C1=O (some centres not stated)
6. CC(C)NC(=O)[C@@]1(Cc2ccccc2I)c2ccccc2C(=O)N(Cc2ccccc2)[C@H]1c1ccc(CO)cc1
7. CCCC[C@@H]1C[C@H]1[C@@H](NC(=O)c1ccc(-c2ccccc2)cc1)c1ccc(-c2ccccc2)cc1

[-1.5, 1.22, -1.6, -2.37, -1.38, -1.22, -1.05]
